Molecular target: T1, Human CD209 (human, UniProt Q9NNX6 1-404)
T1 construct: also called hCD209
T1 sequence: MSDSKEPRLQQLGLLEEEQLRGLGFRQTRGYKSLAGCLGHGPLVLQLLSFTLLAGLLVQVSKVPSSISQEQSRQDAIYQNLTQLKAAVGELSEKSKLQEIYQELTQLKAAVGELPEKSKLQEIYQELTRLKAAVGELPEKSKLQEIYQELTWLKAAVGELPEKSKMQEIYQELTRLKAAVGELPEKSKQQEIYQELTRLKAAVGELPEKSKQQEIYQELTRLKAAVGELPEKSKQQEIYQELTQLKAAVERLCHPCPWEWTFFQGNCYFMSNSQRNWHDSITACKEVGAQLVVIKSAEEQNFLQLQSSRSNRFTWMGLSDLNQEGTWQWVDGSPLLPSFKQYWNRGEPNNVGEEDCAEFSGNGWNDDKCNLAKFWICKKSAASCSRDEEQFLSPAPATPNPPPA
Experiment: flow, Jurkat, 100 nM Ab
Listing of entries alongside the reported MFI normalized to WT.
Number, no unit, nothing else.

binder	measure-name	measurement
KW1.3.12 (antibody, human IgG1, V domains shown) VH: EVQLVESGGGLVQPGGSLRLSCAASGFTFSSYAMSWVRQAPGKGLEWVSTISGSGGSTYYADSVKGRFTISRDNSRNTLYLQMNSLRAEDTAVYYCARGGLIPSGFDYWGQGTLVTVSS VL: DIQMTQSPSSLSASVGDRVTITCRASQSISSYLNWYQQKPGKAPKLLIYAASSLLSGVPSRFSGSGSGTDFTLTISSLQPEDFATYYCQQTYSAPLTFGQGTKVEIK	MFI normalized to WT	0.91

Now, please, on to the next binder.
Asked: Tell me its MFI normalized to WT given KW9.3.3 (antibody, V domains shown) VH: EVQLVESGGGLVQPGGSLRLSCAASGFTFSSYAMSWVRQAPGKGLEWVSAISGSGGRTYYADSVKGRFTISRDNSKNTLYLQMNSLRAEDTAMYYCARGPGYMYLYGDSFFEYWGQGTLVTVSS VL: DIQMAQSPSSLSASVGDRVTITCRASQGISSYLNWYQQKPGKAPKLLIYAASSLQSGVPSRFSGSGYGTDFTLTISSLQPEDFATYYCQQSYSTPLTFGQGTKVEIK as the entry.
Given back: 0.81
